B1: library; a variant is named by its letters at N, in order (parent)
chain: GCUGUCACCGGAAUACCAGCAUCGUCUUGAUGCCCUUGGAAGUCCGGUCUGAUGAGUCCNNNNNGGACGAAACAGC

Variants of: B1
experimental_protocol: normalized RNA/DNA level without ligand (relative to sTRSVctl = 100) (log10 (% of sTRSVctl)); higher = less ribozyme self-cleavage, higher mRNA level
assay_context: HEK293T, reporter: mCherry (pCS4076), ligand present: no
Items are presented alongside their recorded normalized RNA/DNA level without ligand (log10).
property_label: normalized RNA/DNA level without ligand (log10)

| residue_change | measured_result |
| --- | --- |
| CAAUA | 1.16 |
| CAGCU | 1.75 |
| UGCGA | 1.58 |
| AUGCA | 1.84 |
| AUUAC | 1.96 |
| CCAAA | 1.48 |
| AUGAU | 1.75 |
| CAGGU | 1.96 |
| AUUCC | 1.95 |
| UACUC | 2.02 |
